Provenance of the data: patent US20150086555A1

This section presents binders with their documented Trimeric HA Binding: RLU values.
- MEASURED ON: recombinant soluble homotrimeric HA, A/South Carolina/1/18 H1N1 (Influenza A virus A/South Carolina/1/18 (H1N1))
- EXPERIMENT SUMMARY: microarray, transfection SN IgG, trimeric HA
- EXPERIMENTAL CONDITIONS: remark: other sources report otherwise
MEASURED QUANTITY: Trimeric HA Binding: RLU (RLU)

# BINDER, OBSERVED MEASUREMENT
records = [
    ("TCN-558 (5248_H10b) (antibody, V domains shown) VH: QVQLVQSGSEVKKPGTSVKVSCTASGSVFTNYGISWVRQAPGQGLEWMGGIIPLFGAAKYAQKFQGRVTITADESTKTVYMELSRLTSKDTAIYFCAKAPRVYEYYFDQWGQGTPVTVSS VL: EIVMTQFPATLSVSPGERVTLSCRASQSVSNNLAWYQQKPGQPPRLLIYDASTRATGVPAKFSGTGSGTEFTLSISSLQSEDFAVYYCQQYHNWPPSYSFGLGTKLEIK", 40700),
    ("TCN-551 (5243_D01) (antibody, V domains shown) VH: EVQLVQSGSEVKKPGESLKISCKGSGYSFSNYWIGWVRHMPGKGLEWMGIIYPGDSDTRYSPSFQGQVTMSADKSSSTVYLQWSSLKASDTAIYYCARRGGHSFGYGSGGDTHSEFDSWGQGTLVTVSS VL: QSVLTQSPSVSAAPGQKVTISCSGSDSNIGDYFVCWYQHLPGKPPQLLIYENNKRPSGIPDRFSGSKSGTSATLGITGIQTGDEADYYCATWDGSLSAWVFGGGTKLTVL", 4340),
]
